Tested on: K562
measurement notes: Cytotoxicity against human K562 cells assessed as decrease in cell viability after 48 hrs by MTT assay
Assay type: functional, cell-based
assay setup: K562, 48 h
measured quantity: IC50
Dear colleague, please send the value followed by its unit.

So what does the record say about IC50 for CC1=C(c2ccccc2)N(C)NC(=O)N1 ?
66.9 µM

Taken from ChEMBL document CHEMBL4265876.
